Each item that follows carries a reported INH.
# System Name: Solute carrier organic anion transporter family member 2B1 (Homo sapiens, UniProt O94956)
# Sequence (O94956 whole entry): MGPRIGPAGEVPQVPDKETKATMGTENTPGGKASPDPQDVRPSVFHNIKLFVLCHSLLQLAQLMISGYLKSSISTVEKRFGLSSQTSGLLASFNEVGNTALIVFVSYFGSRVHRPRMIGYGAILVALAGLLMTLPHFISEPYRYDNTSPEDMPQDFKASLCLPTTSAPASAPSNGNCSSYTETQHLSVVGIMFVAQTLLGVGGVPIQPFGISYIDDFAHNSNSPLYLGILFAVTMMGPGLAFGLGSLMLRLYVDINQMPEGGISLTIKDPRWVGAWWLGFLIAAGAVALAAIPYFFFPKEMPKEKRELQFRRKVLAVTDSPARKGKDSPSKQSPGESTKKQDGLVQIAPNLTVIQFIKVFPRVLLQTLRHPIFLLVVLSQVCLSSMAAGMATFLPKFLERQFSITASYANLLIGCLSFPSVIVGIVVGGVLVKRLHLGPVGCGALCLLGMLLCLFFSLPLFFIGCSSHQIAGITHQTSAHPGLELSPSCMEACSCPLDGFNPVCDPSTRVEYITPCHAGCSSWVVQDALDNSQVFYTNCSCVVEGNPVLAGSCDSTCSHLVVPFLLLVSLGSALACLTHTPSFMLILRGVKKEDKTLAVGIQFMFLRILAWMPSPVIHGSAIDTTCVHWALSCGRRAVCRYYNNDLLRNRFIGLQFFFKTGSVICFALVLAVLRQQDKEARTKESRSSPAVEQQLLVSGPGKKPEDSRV
# Assay Overview: Inhibition of human liver OATP2B1 expressed in HEK293 Flp-In cells assessed as reduction in [3H]E3S uptake at 20 uM incubated for 5 mins by scintillation counting
# Measurement Setup: hek293, 5 min
Respond numerically; units are % and should not be typed.

Recorded results for 6 compounds are shown here.
Smi: CCc1oc2ccccc2c1C(=O)c1cc(Br)c(O)c(Br)c1
INH / %: 76.3
--
Smi: CC[C@H](C)C(=O)O[C@H]1C[C@@H](C)C=C2C=C[C@H](C)[C@H](CC[C@@H]3C[C@@H](O)CC(=O)O3)[C@H]21
INH / %: -17.9
--
Smi: CC1(C)S[C@@H]2[C@H](NC(=O)Cc3ccccc3)C(=O)N2[C@H]1C(=O)O
INH / %: 7.6
--
Smi: CC/C(=C(\c1ccccc1)c1ccc(OCCN(C)C)cc1)c1ccccc1
INH / %: 11
--
Smi: COCc1c(C(C)C)nc(C(C)C)c(/C=C/[C@@H](O)C[C@@H](O)CC(=O)O)c1-c1ccc(F)cc1
INH / %: 40.1
--
Smi: CC1(C)C(/C=C/C=C/C=C/C=C2/N(CCCCS(=O)(=O)[O-])c3ccc4ccccc4c3C2(C)C)=[N+](CCCCS(=O)(=O)[O-])c2ccc3ccccc3c21.[Na+]
INH / %: 79.2

Field: next compound
Task: GET /values?readout=INH&item= c1cnc2cc3c(cc2n1)[C@@H]1CNC[C@H]3C1
Result: 27.3

====

# System Name: Solute carrier organic anion transporter family member 1B1 (Homo sapiens)
# Assay Overview: Inhibition of human liver OATP1B1 expressed in HEK293 Flp-In cells assessed as reduction in E17-betaG uptake at 20 uM by scintillation counting
# Measurement Setup: hek293, 20 µM
Outcome Measure: INH (%)
Respond numerically; units are % and should not be typed.

Recorded results for 6 compounds are shown here.
Compound: CC(C)[C@H](N)C(=O)OCCOCn1cnc2c(=O)[nH]c(N)nc21
Outcome Measure: INH
Value Reported: 8.3

Compound: CN(CCOc1ccc(NS(C)(=O)=O)cc1)CCc1ccc(NS(C)(=O)=O)cc1 [DOFETILIDE]
Outcome Measure: INH
Value Reported: 1

Compound: CC(C)(C)c1ccc(C(O)CCCN2CCC(C(O)(c3ccccc3)c3ccccc3)CC2)cc1 (stereo unspecified)
Outcome Measure: INH
Value Reported: 42.7

Compound: CCc1c2c(nc3ccc(OC(=O)N4CCC(N5CCCCC5)CC4)cc13)-c1cc3c(c(=O)n1C2)COC(=O)[C@]3(O)CC
Outcome Measure: INH
Value Reported: 40.5

Compound: C[C@@H]1O[C@@H](O[C@H]2C[C@@H](O)[C@]3(CO)[C@H]4[C@H](O)C[C@]5(C)[C@@H](C6=CC(=O)OC6)CC[C@]5(O)[C@@H]4CC[C@]3(O)C2)[C@H](O)[C@H](O)[C@H]1O
Outcome Measure: INH
Value Reported: 50.5

Compound: Cc1ncc2n1-c1ccc(Cl)cc1C(c1ccccc1F)=NC2
Outcome Measure: INH
Value Reported: 32.9

Task: GET /values?readout=INH&item= CCOc1ccc(NC(C)=O)cc1
Result: 34.2

Task: GET /values?readout=INH&item= CCC1(c2ccccc2)NC(=O)N(C)C1=O (stereo unspecified)
Result: -5.7

Task: GET /values?readout=INH&item= O=C1Nc2ccc(Cl)cc2[C@@](C#CC2CC2)(C(F)(F)F)O1
Result: 40.9

Task: GET /values?readout=INH&item= O=c1c(O)c(-c2ccc(O)cc2O)oc2cc(O)cc(O)c12
Result: 85.2

====

Each item that follows carries a reported inhibition at 20 µM.
# System Name: UniProt:Q9Y6L6
# Sequence (Q9Y6L6 whole entry): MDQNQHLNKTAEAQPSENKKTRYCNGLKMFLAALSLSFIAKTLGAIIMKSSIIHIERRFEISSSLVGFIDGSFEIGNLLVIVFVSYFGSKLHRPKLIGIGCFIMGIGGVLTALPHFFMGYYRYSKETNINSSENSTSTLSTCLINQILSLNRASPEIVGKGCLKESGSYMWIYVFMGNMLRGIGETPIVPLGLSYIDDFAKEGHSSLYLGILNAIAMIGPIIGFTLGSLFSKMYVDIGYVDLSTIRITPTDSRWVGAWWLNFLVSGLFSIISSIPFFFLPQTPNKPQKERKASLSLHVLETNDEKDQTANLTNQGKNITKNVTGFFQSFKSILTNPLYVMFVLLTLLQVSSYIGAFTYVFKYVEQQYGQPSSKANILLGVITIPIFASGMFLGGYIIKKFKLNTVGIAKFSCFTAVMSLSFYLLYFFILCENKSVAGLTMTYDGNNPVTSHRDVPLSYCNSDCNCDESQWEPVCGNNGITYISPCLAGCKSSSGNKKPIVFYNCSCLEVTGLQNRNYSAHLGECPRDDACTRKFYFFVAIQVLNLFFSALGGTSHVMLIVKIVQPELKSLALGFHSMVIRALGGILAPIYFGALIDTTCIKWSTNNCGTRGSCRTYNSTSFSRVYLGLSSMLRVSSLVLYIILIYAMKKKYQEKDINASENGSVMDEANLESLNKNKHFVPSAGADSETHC
# Assay Overview: Inhibition of human liver OATP1B1 expressed in HEK293 Flp-In cells assessed as reduction in E17-betaG uptake at 20 uM by scintillation counting
# Measurement Setup: HEK293 Flp-In cells expressing OATP1B1, probe E17-betaG
Respond numerically; units are % and should not be typed.

Compound: CC1COc2c(N3CCN(C)CC3)c(F)cc3c(=O)c(C(=O)O)cn1c23 (configuration not stated)
inhibition at 20 µM, %: -8.2
--
Compound: C[n+]1ccccc1
inhibition at 20 µM, %: 27.9
--
Compound: CC[C@H]1OC(=O)[C@H](C)[C@@H](O[C@H]2C[C@@](C)(OC)[C@@H](O)[C@H](C)O2)[C@H](C)[C@@H](O[C@@H]2O[C@H](C)C[C@H](N(C)C)[C@H]2O)[C@](C)(OC)C[C@@H](C)C(=O)[C@H](C)[C@@H](O)[C@]1(C)O
inhibition at 20 µM, %: 73.1

Task: GET /values?readout=inhibition at 20 µM&item= COc1ccc2c(c[n+](C)c3c4cc5c(cc4ccc23)OCO5)c1OC
Result: -0.7

Task: GET /values?readout=inhibition at 20 µM&item= C[C@H](CCC(=O)NCC(=O)O)[C@H]1CC[C@H]2[C@@H]3[C@H](O)C[C@@H]4C[C@H](O)CC[C@]4(C)[C@H]3C[C@H](O)[C@]12C
Result: 66.4

Task: GET /values?readout=inhibition at 20 µM&item= N[C@@H](Cc1cc(I)c(Oc2cc(I)c(O)c(I)c2)c(I)c1)C(=O)O
Result: -13.1

Task: GET /values?readout=inhibition at 20 µM&item= CCCc1nc(C(C)(C)O)c(C(=O)OCc2oc(=O)oc2C)n1Cc1ccc(-c2ccccc2-c2nnn[nH]2)cc1
Result: 60.4

Task: GET /values?readout=inhibition at 20 µM&item= COc1cccc2c1C(=O)c1c(O)c3c(c(O)c1C2=O)C[C@@](O)(C(=O)CO)C[C@@H]3O[C@H]1C[C@H](N)[C@H](O)[C@H](C)O1
Result: -5.8

Task: GET /values?readout=inhibition at 20 µM&item= CCN(CC)CCCC(C)Nc1ccnc2cc(Cl)ccc12 (configuration not stated)
Result: -1.4

Task: GET /values?readout=inhibition at 20 µM&item= C[C@H](CCC(=O)NCCS(=O)(=O)O)[C@H]1CC[C@H]2[C@@H]3CC[C@@H]4C[C@H](O)CC[C@]4(C)[C@H]3C[C@H](O)[C@]12C
Result: 81.7

Task: GET /values?readout=inhibition at 20 µM&item= C[C@]12CC[C@@H]3c4ccc(O)cc4CC[C@H]3[C@@H]1CC[C@@H]2O[C@@H]1O[C@H](C(=O)O)[C@@H](O)[C@H](O)[C@H]1O [ESTRADIOL 17B GLUCURONIDE]
Result: 67.9

Task: GET /values?readout=inhibition at 20 µM&item= CSCC[C@H](NC(=O)[C@H](Cc1ccc(OS(=O)(=O)O)cc1)NC(=O)[C@@H](N)CC(=O)O)C(=O)NCC(=O)N[C@@H](Cc1c[nH]c2ccccc12)C(=O)N[C@@H](CCSC)C(=O)N[C@@H](CC(=O)O)C(=O)N[C@@H](Cc1ccccc1)C(N)=O [SINCALIDE]
Result: 89.3

Task: GET /values?readout=inhibition at 20 µM&item= CC(=O)Oc1ccc2c(c1)Oc1cc(OC(C)=O)ccc1C21OC(=O)c2cc(C(=O)O)ccc21
Result: 70.7

Task: GET /values?readout=inhibition at 20 µM&item= C[n+]1ccc(-c2ccccc2)cc1
Result: 14.2

Task: GET /values?readout=inhibition at 20 µM&item= C[n+]1cc2c3c(ccc2c2ccc4cc5c(cc4c21)OCO5)OCO3
Result: -0.2

Task: GET /values?readout=inhibition at 20 µM&item= Cc1nccn1CC1CCc2c(c3ccccc3n2C)C1=O (configuration not stated)
Result: 4.8

Task: GET /values?readout=inhibition at 20 µM&item= S=C=NCCc1ccccc1 [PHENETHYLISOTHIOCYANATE]
Result: -16.4
